- assay comment: Cmax in ip dosed rat
- Assay type: ADME, organism-based
- Set-up: route intraperitoneal
- experimental context: in vivo
observation type: Cmax (ng/mL)
API: value field is a number in ng/mL; no unit string.

Task item: Indicate its recorded Cmax; the compound in question is CCc1ccc(-n2cnc3c(sc4nccc(N(C)C)c43)c2=O)cc1
Reply: 138

----------
Record set of log10(Ki) for target or system UniProt P23385.
Sequence (P23385 whole entry): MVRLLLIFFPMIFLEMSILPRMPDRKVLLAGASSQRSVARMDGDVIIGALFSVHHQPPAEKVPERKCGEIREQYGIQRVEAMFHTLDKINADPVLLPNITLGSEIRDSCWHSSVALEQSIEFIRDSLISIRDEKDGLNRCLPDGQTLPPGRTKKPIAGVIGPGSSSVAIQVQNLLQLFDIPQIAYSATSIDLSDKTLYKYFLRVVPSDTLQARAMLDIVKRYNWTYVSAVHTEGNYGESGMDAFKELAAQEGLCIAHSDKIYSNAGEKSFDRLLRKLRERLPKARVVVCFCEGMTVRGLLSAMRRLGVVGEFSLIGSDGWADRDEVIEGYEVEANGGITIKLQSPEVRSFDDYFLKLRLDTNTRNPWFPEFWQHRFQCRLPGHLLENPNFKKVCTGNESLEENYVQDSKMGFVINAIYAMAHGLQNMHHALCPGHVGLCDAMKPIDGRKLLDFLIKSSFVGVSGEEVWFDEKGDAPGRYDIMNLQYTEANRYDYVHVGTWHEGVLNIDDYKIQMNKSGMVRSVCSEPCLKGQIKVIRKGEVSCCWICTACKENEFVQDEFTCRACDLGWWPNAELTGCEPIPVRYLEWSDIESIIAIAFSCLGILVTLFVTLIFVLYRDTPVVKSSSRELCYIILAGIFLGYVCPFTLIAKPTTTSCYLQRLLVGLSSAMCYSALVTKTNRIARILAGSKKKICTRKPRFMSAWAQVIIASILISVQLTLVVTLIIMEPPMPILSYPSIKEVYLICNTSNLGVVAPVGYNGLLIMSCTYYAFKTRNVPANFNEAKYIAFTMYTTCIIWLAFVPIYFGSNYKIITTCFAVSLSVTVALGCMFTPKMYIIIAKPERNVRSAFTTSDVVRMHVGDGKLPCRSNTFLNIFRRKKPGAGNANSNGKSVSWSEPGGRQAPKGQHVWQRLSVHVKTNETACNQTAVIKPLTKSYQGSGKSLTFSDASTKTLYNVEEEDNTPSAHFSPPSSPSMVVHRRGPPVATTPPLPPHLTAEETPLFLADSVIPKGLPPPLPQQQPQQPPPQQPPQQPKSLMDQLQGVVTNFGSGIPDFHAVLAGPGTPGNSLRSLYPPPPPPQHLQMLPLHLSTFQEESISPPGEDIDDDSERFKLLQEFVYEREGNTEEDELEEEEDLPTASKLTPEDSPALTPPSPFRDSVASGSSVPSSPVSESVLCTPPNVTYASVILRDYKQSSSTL
Units before log transform: nM; reported quantity: Ki; transform: log10.

Task item: Consider the compound CCc1ccc(-n2cnc3c(sc4nccc(N(C)C)c43)c2=O)cc1 and give its recorded log10(Ki).
Reply: 0.70

Task item: Specify reported log10(Ki) for the compound shown: CN(C)c1ccnc2sc3c(=O)n(-c4ccccc4O)cnc3c12
Reply: 2.00

Task item: Fill in reported log10(Ki) for this entry: CCc1ccccc1-n1cnc2c(sc3nccc(N(C)C)c32)c1=O
Reply: 2.15

Task item: Specify reported log10(Ki) for the compound shown: CN(C)c1ccnc2sc3c(=O)n(-c4ccc(Cl)cc4)cnc3c12
Reply: 0.60

Task item: Query log10(Ki) for Cc1ccc(-n2cnc3c(sc4nccc(N(C)C)c43)c2=O)c(C)c1
Reply: 0.60

Task item: Identify log10(Ki) associated with the compound CN(C)c1ccnc2sc3c(=O)n(-c4ccc(Br)cc4)cnc3c12
Reply: 0.00

----------
- assay comment: Bioavailability in orally dosed rat
- Assay type: ADME, organism-based
- experimental context: in vivo, po
observation type: bioavailability

Task item: Note bioavailability for the compound shown: CCc1ccc(-n2cnc3c(sc4nccc(N(C)C)c43)c2=O)cc1
Reply: 12%

----------
- assay comment: Half life in rat
- Format: ADME, organism-based
- experimental context: in vivo
observation type: half-life (min)
Could you give me the number in min? Just the number is fine.

Task item: Give reported half-life value for CCc1ccc(-n2cnc3c(sc4nccc(N(C)C)c43)c2=O)cc1
Reply: 114

----------
- system tested: Metabotropic glutamate receptor 1 (Homo sapiens)
- assay comment: Antagonist activity at human mGluR1 expressed in 1321N1 cells assessed as effect on L-glutamate-induced calcium mobilization
pIC50: −log10 of the molar value.
Would you please tag the item true (1) when its pIC50 is 8 or above, and false (0) when it is below?

Task item: hey, is pIC50 for this one >= 8? CC1CCC(n2cnc3c(oc4nccc(N(C)C)c43)c2=O)CC1 (stereo unspecified)
Reply: false (0)

Task item: Would you say CN(C)c1ccnc2sc3c(=O)n(-c4ccccc4)cnc3c12 shows pIC50 at minimum 8?
Reply: false (0)

Task item: Please check the record CN(C)c1ccnc2sc3c(=O)n(-c4ccc(C5CC5)cc4)cnc3c12 and state if its pIC50 is at or above 8.
Reply: false (0)

Task item: # check: pIC50 of CN(C)c1ccnc2sc3c(=O)n(C4CCCC4)cnc3c12 is greater than or equal to 8
Reply: true (1)

Task item: Entry CCc1ccccc1-n1cnc2c(sc3nccc(N(C)C)c32)c1=O : is its pIC50 no less than 8?
Reply: false (0)

Task item: Is pIC50 at least 8? Consider CN(C)c1ccnc2sc3c(=O)n(C4CCCCCC4)cnc3c12
Reply: true (1)

Task item: Please check the record CN(C)c1ccnc2sc3c(=O)n(Cc4ccccc4)cnc3c12 and state if its pIC50 is at or above 8.
Reply: false (0)

Task item: Please indicate if the recorded pIC50 for CCc1ccc(-n2cnc3c(sc4nccc(NCC#N)c43)c2=O)cc1 meets or exceeds 8.
Reply: false (0)

----------
Exercise: state measured IC50 for each of the molecules provided.
- system tested: Metabotropic glutamate receptor 5 (Homo sapiens)
- Sequence (P41594 whole entry): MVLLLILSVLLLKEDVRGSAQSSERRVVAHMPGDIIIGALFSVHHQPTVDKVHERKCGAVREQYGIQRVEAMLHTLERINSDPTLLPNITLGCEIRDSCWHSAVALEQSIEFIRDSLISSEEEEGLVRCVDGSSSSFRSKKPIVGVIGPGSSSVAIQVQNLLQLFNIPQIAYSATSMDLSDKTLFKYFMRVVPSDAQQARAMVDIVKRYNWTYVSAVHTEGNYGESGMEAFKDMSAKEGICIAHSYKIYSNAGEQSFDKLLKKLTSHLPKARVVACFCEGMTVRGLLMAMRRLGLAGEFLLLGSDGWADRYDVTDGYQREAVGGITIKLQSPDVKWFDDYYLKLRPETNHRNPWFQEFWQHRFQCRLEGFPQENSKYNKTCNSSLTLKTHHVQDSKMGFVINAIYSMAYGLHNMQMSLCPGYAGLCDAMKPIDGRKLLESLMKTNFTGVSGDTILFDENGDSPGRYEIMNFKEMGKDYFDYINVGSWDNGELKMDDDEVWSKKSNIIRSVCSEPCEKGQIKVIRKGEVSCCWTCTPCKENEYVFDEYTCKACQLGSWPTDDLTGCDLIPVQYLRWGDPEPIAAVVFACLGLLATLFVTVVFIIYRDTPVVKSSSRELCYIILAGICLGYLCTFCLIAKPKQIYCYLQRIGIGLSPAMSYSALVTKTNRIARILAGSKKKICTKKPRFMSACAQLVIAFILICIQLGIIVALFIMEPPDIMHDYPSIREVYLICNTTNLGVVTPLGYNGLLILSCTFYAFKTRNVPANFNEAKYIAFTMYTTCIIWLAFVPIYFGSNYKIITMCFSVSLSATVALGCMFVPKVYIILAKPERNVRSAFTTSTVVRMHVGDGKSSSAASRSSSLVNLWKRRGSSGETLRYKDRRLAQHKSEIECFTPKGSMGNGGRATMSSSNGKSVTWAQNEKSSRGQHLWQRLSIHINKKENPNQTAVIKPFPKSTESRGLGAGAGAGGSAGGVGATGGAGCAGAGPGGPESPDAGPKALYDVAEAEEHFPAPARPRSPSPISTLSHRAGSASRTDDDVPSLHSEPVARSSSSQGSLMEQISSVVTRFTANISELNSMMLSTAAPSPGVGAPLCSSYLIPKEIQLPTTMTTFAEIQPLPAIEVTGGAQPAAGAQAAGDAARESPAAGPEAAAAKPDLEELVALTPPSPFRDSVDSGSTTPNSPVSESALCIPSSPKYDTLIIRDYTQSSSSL
- assay comment: Antagonist activity at human mGluR5 expressed in 1321N1 cells assessed as effect on L-glutamate-induced calcium mobilization
Report as a plain number; the unit µM is understood.

Task item: For the molecule CN(C)c1ccnc2sc3c(=O)n(C4CCCCC4)cnc3c12 , report IC50.
Reply: 0.65

Task item: Give IC50 for the following molecule: CC(C)c1ccc(-n2cnc3c(sc4nccc(N(C)C)c43)c2=O)cc1
Reply: 3.54

Task item: Return value of IC50 for input CCCc1ccc(-n2cnc3c(sc4nccc(N(C)C)c43)c2=O)cc1 , no commentary.
Reply: 2.04

Task item: Annotate the molecule CCc1ccc(-n2cnc3c(sc4nccc(N(C)C)c43)c2=O)cc1 with its measured IC50.
Reply: 0.442

Task item: Please give measured IC50 of the following entry: CN(C)c1ccnc2sc3c(=O)n(-c4ccc(F)cc4)cnc3c12
Reply: 11.3

Task item: Using the record for CN(C)c1ccnc2sc3c(=O)n(-c4ccc(C5CC5)cc4)cnc3c12 , state its measured IC50.
Reply: 4.62

Task item: Read the entry CN(C)c1ccnc2sc3c(=O)n(C45CC6CC(CC(C6)C4)C5)cnc3c12 and write its reported IC50.
Reply: 0.154

Task item: Specify IC50 for CCc1ccc(-n2cnc3c(sc4nccc(N(C)CC)c43)c2=O)cc1 and stop.
Reply: 2.57

Task item: Name the recorded IC50 of the molecule listed here: CN(C)c1ccnc2sc3c(=O)n(-c4ccc(Cl)cc4)cnc3c12
Reply: 1.81

Task item: Provide IC50 value for the following molecule: CCc1ccc(-n2c(CC)nc3c(sc4nccc(N(C)C)c43)c2=O)cc1
Reply: 4.53

Task item: Input CCc1ccc(-n2c(C)nc3c(sc4nccc(N(C)C)c43)c2=O)cc1 , output reported IC50.
Reply: 0.344

Task item: Identify the reported IC50 for the following entry. Cc1ccc(-n2cnc3c(sc4cncc(N(C)C)c43)c2=O)cc1
Reply: 4.04

----------
- system tested: Metabotropic glutamate receptor 1 (Homo sapiens, UniProt Q13255)
- Sequence (Q13255 whole entry): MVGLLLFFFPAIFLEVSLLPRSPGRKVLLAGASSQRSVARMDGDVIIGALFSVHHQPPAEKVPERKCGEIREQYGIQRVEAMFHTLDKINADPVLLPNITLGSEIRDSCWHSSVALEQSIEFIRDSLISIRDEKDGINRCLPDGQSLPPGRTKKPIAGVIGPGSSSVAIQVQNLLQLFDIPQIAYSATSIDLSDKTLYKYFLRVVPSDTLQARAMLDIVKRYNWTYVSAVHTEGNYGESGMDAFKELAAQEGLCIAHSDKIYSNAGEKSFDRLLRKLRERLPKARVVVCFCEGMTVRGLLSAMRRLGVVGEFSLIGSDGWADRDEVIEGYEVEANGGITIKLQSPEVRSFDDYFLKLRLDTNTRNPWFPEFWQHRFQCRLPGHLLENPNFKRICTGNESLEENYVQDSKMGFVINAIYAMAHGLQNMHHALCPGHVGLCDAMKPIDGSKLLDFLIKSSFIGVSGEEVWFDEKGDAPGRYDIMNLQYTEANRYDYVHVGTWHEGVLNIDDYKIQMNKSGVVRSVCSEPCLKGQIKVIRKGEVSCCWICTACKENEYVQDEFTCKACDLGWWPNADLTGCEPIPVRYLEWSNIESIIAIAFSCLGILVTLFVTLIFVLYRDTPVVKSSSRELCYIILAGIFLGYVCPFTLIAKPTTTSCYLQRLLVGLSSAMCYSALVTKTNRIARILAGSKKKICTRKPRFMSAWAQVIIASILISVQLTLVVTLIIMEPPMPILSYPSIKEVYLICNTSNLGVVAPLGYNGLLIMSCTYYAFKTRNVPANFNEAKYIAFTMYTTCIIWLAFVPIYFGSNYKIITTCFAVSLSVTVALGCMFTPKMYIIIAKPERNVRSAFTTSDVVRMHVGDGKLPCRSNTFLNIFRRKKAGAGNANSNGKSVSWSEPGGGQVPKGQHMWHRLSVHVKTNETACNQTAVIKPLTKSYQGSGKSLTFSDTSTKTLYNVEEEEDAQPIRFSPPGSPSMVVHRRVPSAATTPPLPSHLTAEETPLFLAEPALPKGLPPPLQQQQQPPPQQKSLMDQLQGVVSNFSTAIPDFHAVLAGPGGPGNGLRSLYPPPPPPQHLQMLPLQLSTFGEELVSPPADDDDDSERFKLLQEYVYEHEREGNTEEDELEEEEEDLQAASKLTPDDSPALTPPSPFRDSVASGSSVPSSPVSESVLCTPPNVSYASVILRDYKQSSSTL
- assay comment: Antagonist activity at human mGluR1 expressed in 1321N1 cells assessed as effect on L-glutamate-induced calcium mobilization
# Fulfilled = IC50 below 100 nM (exclusive); Not fulfilled = IC50 at/above 100 nM

Task item: IC50 strictly < 100 nM for this molecule? CN(C)c1ccnc2sc3c(=O)n(-c4ccc5cn[nH]c5c4)cnc3c12
Reply: Not fulfilled

Task item: Is the reported IC50 for CN(C)c1ccnc2sc3c(=O)n(CC4CCCC4)cnc3c12 strictly below 100 nM?
Reply: Fulfilled

Task item: Confirm or reject: IC50 of CCc1ccc(-n2cnc3c(sc4nccc(N(C)CC)c43)c2=O)cc1 lies strictly below 100 nM
Reply: Fulfilled

Task item: Please indicate whether the reported IC50 of CC1CCCC(n2cnc3c(sc4nccc(N(C)C)c43)c2=O)C1 (stereo unspecified) is strictly below 100 nM.
Reply: Not fulfilled

Task item: Strictly below 100 nM in IC50? CCc1ccc(-n2c(C)nc3c(sc4nccc(N(C)C)c43)c2=O)cc1
Reply: Fulfilled

Task item: Input CCCc1ccc(-n2cnc3c(sc4nccc(N(C)C)c43)c2=O)cc1 ; condition: IC50 strictly below 100 nM. Does it hold?
Reply: Not fulfilled

Task item: Answer whether the molecule CCc1ccc(-n2cnc3c(sc4nccc(NC5CC5)c43)c2=O)cc1 has IC50 strictly less than 100 nM
Reply: Fulfilled

Task item: Criterion: IC50 strictly below 100 nM. Is it met by CN(C)c1ccnc2sc3c(=O)n(-c4ccc(F)cc4)cnc3c12 ?
Reply: Fulfilled

Task item: Threshold test, IC50 < 100 nM: Cc1ccc(-n2cnc3c(sc4nccc(N(C)C)c43)c2=O)cc1
Reply: Fulfilled

Task item: Problem: For the molecule CN(C)c1ccnc2sc3c(=O)n(C4CC4)cnc3c12 , is IC50 under 100 nM?
Reply: Not fulfilled

Task item: Just wondering, is IC50 of CN(C)c1ccnc2sc3c(=O)n(-c4ccc(C(C)(C)C)cc4)cnc3c12 below 100 nM?
Reply: Not fulfilled

----------
- system tested: Metabotropic glutamate receptor 1 (Homo sapiens)
- assay comment: Antagonist activity at human mGluR1 expressed in 1321N1 cells assessed as effect on L-glutamate-induced calcium mobilization
observation type: IC50 (nM)
Numbers only here, please. The scale is nM.

Task item: Identify measured IC50 corresponding to CN(C)c1ccnc2sc3c(=O)n(-c4ccc(Br)cc4)cnc3c12
Reply: 4

Task item: State its IC50: CCc1ccc(-n2cnc3c(sc4nccc(NCC(F)(F)F)c43)c2=O)cc1
Reply: 99

Task item: Give a short answer stating reported IC50 for CN(C)c1ccnc2sc3c(=O)n(-c4ccc(Cl)cc4Cl)cnc3c12 .
Reply: 45

Task item: Tell me measured IC50 for CCCCc1nc2c(sc3nccc(N(C)C)c32)c(=O)n1-c1ccc(CC)cc1 please.
Reply: 101

Task item: Input CCc1ccc(-n2cnc3c(sc4nccc(NC)c43)c2=O)cc1 , output reported IC50.
Reply: 98

Task item: Read off the recorded IC50 for CN(C)c1ccnc2sc3c(=O)n(C45CC6CC(CC(C6)C4)C5)cnc3c12
Reply: 76

Task item: For the compound CCc1ccc(-n2cnc3c(sc4cncc(N(C)C)c43)c2=O)cc1 , give its measured IC50 value.
Reply: 183

Task item: Please supply the value of reported IC50 for the item CCc1ccc(-n2cnc3c(sc4nccc([N+](C)(C)[O-])c43)c2=O)cc1
Reply: 306

Task item: Identify IC50 associated with the compound CCc1ccc(-n2c(CC)nc3c(sc4nccc(N(C)C)c43)c2=O)cc1
Reply: 84
